Measured endpoint: melting point

>>> print(df.to_string())
                                    compound  measured_endpoint  experimental_result
 0     C=CCc1cc(Cc2cnc(N)nc2N)c2ccc(C)nc2c1O      melting point        236 to 237 °C
 1  COc1ccc(-c2nn(Cc3ccccc3)c(=O)cc2-c2ccc(OC)c(F)c2)cc1      melting point        110 to 112 °C
 2  N#Cc1cc(N)n(-c2c(Cl)cc(-c3ccc(C(F)(F)F)cc3)cc2Cl)n1      melting point        195 to 199 °C
 3  COc1cc(OC)nc(OC(C(=O)O)C(C)(Oc2ccccc2)c2ccccc2)n1 (centres undefined)      melting point          50 to 55 °C
 4  CC(C)=CCOc1ccc2c(=O)c(C)c(-c3ccccc3)oc2c1C(=O)C=Cc1ccc(Cl)cc1      melting point        130 to 133 °C
 5                CCCCCCC(=O)C[C@H](O)C(=O)O      melting point          69 to 70 °C
 6  CCCCc1oc2ccccc2c1C(=O)N(C)Cc1ccc2cc(O)ccc2c1      melting point        110 to 113 °C
 7  CCOC(=O)c1cnc2nc(C=CC(N)=O)c(OCC)cc2c1Nc1ccc(OC)cc1      melting point        238 to 242 °C
 8  CSC(Nc1cccnc1)=C(C#N)S(=O)(=O)c1ccc(Cl)cc1      melting point        181 to 182 °C
 9  O=C(O)C(=O)NC1N=C2C(=Cc3ccccc32)S1 (centres undefined)      melting point        229 to 231 °C
10  CC(C)n1cc(-c2nc(C(N)=O)c(N)nc2-c2ccc(F)c(F)c2)ccc1=O      melting point               226 °C
11  CCCc1c(OCCOc2ccc([N+](=O)[O-])cc2)ccc(C(C)=O)c1O      melting point        124 to 125 °C
12  CCSC1(SCC)C(=O)CC2C3CCC4=CC(=O)C=CC4(C)C3(F)C(O)CC21C (centres undefined)      melting point        268 to 270 °C
13  COc1ccccc1Cn1c(=O)[nH]c2cc(Cl)cc(Cl)c2c1=O      melting point        143 to 146 °C
14  CC(=O)Nc1ccc(CC(=O)NCCc2ccc3[nH]cc(CC#N)c3c2)cc1      melting point        188 to 189 °C
15  O=C1N(Cc2ccccn2)c2ccccc2C12COc1c(Cl)cc3c(c12)OCCO3 (centres undefined)      melting point        197 to 199 °C
16  O=C(O)CCCCCc1nn(-c2ccc([N+](=O)[O-])cc2)c2c1CCCC2      melting point        119 to 121 °C
17                 NNS(=O)(=O)c1cccc2cccnc12      melting point        135 to 137 °C
18  CCOC(=S)c1c(CC)nc(C)nc1NCCc1ccc(OC)c(OC)c1      melting point          52 to 53 °C
19  O=C(NN1CCCCC1)c1cc(Oc2c(F)cc(C(F)(F)F)cc2Cl)ccc1[N+](=O)[O-]      melting point          65 to 68 °C
20  COc1ccc2nc(NC(=O)C(CC3CCCC3)c3ccc(S(=O)(=O)N4CCOCC4)cc3)sc2n1 (centres undefined)      melting point        120 to 123 °C
21  Cc1ccc2[nH]cc(C3=C(Br)C(=O)N(C)C3=O)c2c1      melting point        158 to 159 °C
22  OCc1nc(-c2ccc3nc(-c4ccc(Cl)cc4)cn3c2)cs1      melting point        190 to 192 °C
23      C[C@@H](NCc1ccc(O)cc1)c1cccc2ccccc12      melting point        132 to 133 °C
24       COC(=O)c1cc(C=NO)cc([N+](=O)[O-])c1      melting point        144 to 145 °C
25  CC(C)(C)C1=NN(c2ccc(C(=O)O)cc2)C(c2ccc(Cl)c(Cl)c2)C1 (centres undefined)      melting point               217 °C
26                        Nc1nc2cc(Br)ccn2n1      melting point        190 to 192 °C
27  CC(=O)Oc1ccc([N+](=O)[O-])cc1C1(OC(C)=O)C(=O)c2ccccc2C1=O      melting point        163 to 167 °C
28  C[C@@H]1CN(CC(=O)Nc2ccccc2Cl)C[C@H](C)N1c1ncnc2sccc12      melting point        206 to 207 °C
